measurement-kind: intrinsic clearance, rat liver microsomes
Note to self: number, then unit, no commentary.

[ask] Quick check: intrinsic clearance, rat liver microsomes of OC1CCN(c2nccc(-c3cccs3)n2)CC1 ?
[reply] 39.4 L/h/kg

[ask] Quick check: intrinsic clearance, rat liver microsomes of Nc1nnc(-c2ccc3c(c2)OCCO3)o1 ?
[reply] 3.69 L/h/kg

[ask] Quick check: intrinsic clearance, rat liver microsomes of O=C(c1ccccc1-c1ncc(-c2ccccc2F)o1)N1CCC1 ?
[reply] 27.3 L/h/kg

[ask] Quick check: intrinsic clearance, rat liver microsomes of O=C(CCCOc1ccccc1)N1CCCC1 ?
[reply] 17.7 L/h/kg

[ask] Quick check: intrinsic clearance, rat liver microsomes of Cc1cccc(OCC(=O)Nc2ccn(C)n2)c1 ?
[reply] 28.8 L/h/kg

[ask] Quick check: intrinsic clearance, rat liver microsomes of CCc1nnc(N2CC(N(C)C)C2)c(C#N)c1CC ?
[reply] 7.79 L/h/kg

[ask] Quick check: intrinsic clearance, rat liver microsomes of Cc1cc(CO)nc(N2CCCCC2)n1 ?
[reply] 6.79 L/h/kg

[ask] Quick check: intrinsic clearance, rat liver microsomes of COc1ccc(Cl)cc1C(=O)NCCc1ccc(S(=O)(=O)NC(=O)NC2CCCCC2)cc1 ?
[reply] 32.1 L/h/kg

[ask] Quick check: intrinsic clearance, rat liver microsomes of CN(C)C(=O)c1sc2nc(C3(C)CCN(c4ncccn4)CC3)ccc2c1N ?
[reply] 6.69 L/h/kg

[ask] Quick check: intrinsic clearance, rat liver microsomes of CON(C)C(=O)c1cccc2c(C)c(C)[nH]c12 ?
[reply] 11.7 L/h/kg

[ask] Quick check: intrinsic clearance, rat liver microsomes of CN(C)Cc1csc(-c2nccn2-c2ccc3c(c2)n(C)c(=O)n3C)c1 ?
[reply] 2.29 L/h/kg

[ask] Quick check: intrinsic clearance, rat liver microsomes of Cc1cccc(C)c1CNC1(CCO)CCOCC1 ?
[reply] 4.46 L/h/kg
